# target: Neu5Ac(a2-6)Gal(b1-4)GlcNAc(b1-2)Man(a1-6)[Man(a1-3)]Man(b1-4)GlcNAc(b1-4)GlcNAc
# assay: glycan array binding signal (z-score within array); higher = stronger binding
# particulars: glycan notation: IUPAC condensed, linker removed
The entries come from a sample that favours the strongest signals as a whole.

| binder | glycan array binding signal (z-score) |
| --- | --- |
| EUL D1A first (Oryza sativa) (protein) MFGFGHHHNQAPAAPSDPNQIFKIFCRANENYCLTVRDSAVVLAPVNPKDEHQHWFKDMRFSTKVKDGEGMPAFALVNKATGLAVKHSLGQSHPVKLVPFNPEYEDASVLWTESKDVGKGFRCIRMVNNTRLNLDAFHGDKDHGGVRDGTTVVLWEWCKGDNQSWKILPWGPEAHSSSPGAATILEQKLISEEDLNSAVDHHHHHH | -0.647 |
| EPL1 (Trichoderma atroviride), A0PCX2 (protein) MQLSNLFKLALFTAAVSADTVSYDTGYDDASRSLTVVSCSDGTNGLITRYHWQTQGQIPRFPYIGGAQAVAGWNSPNCGTCWKLTYSGKTIYVLAIDHTAAGFNIGLDAMNALTNGNAVALGRVSATASQVAVSNCGL | -0.436 |
| MSMEG3662-2a (Mycobacterium smegmatis), A0QYH7_MYCS2 (protein) MGDTLTAGQKLERGGSLQSGNGAYTLTLQDDGNLVLYARDKAVWSTGTNGQDVVRAEVQTDGNFVLYTAEKPVWHTDTKGKKEVKLVLQDDRNLVLYAKDGPAWSSKTDTTEPPPPAPEPEKEAEVAPAAAEEAAPAPVAEPAPAEPAPAAPPPAPPAPRTYTVVSGDTLWAIAERFYGDGSKYQQIADASGIANPDLIHPGQVLTIP | -0.14 |
| CFEM-PPm (Pichia pastoris), F2QPV1 (protein) AVATPPACLLACAAEVVKESSDCDALNNIQCICENEGSAIHACLESTCPDGLSSTALQSFEDVCE | -0.345 |
